Entry source: patent US20110015119A1

Test system: Enterococcus faecalis 848 (VRE, Van A)
Experiment: MIC by broth microdilution, EFc 848
Type: cell-based
Conditions: Enterococcus faecalis, VRE, read-out: MIC E FC 848, Enterococcus faecalis 848 (VRE, Van A); class symbols
METRIC NAME: MIC

**Query** # query: MIC of entry CCCCCOc1ccc(CCNC(=O)Oc2cc(O)c3c(c2)[C@@H](C(=O)O)NC(=O)[C@H]2NC(=O)[C@H](NC(=O)[C@@H]4NC(=O)[C@H](CC(N)=O)NC(=O)[C@H](NC(=O)[C@@H](CC(C)C)NC)[C@H](O)c5ccc(c(Cl)c5)Oc5cc4cc(c5O[C@@H]4O[C@H](CO)[C@@H](O)[C@H](O)[C@H]4O[C@H]4C[C@](C)(N)[C@H](O)[C@H](C)O4)Oc4ccc(cc4Cl)[C@H]2O)c2ccc(O)c-3c2)cc1 (atropisomer, axis not shown) [Compound 356]
**Result** > 16 µg/mL

**Query** How about this compound: CCOc1ccc(NC(=O)Oc2cc(O)c3c(c2)[C@@H](C(=O)NC2C4CC5CC(C4)CC2C5)NC(=O)[C@H]2NC(=O)[C@H](NC(=O)[C@@H]4NC(=O)[C@H](CC(N)=O)NC(=O)[C@H](NC(=O)[C@@H](CC(C)C)NC)[C@H](O)c5ccc(c(Cl)c5)Oc5cc4cc(c5O[C@@H]4O[C@H](CO)[C@@H](O)[C@H](O)[C@H]4O[C@H]4C[C@](C)(N)[C@H](O)[C@H](C)O4)Oc4ccc(cc4Cl)[C@H]2O)c2ccc(O)c-3c2)cc1 (stereo partly drawn) [Compound 330]
**Result** > 16 µg/mL

**Query** What do you get for CCCCCCc1ccc(NC(=O)Oc2cc(O)c3c(c2)[C@@H](C(=O)NC2C4CC5CC(C4)CC2C5)NC(=O)[C@H]2NC(=O)[C@H](NC(=O)[C@@H]4NC(=O)[C@H](CC(N)=O)NC(=O)[C@H](NC(=O)[C@@H](CC(C)C)NC)[C@H](O)c5ccc(c(Cl)c5)Oc5cc4cc(c5O[C@@H]4O[C@H](CO)[C@@H](O)[C@H](O)[C@H]4O[C@H]4C[C@](C)(N)[C@H](O)[C@H](C)O4)Oc4ccc(cc4Cl)[C@H]2O)c2ccc(O)c-3c2)cc1 (stereo partly drawn) [Compound 332] ?
**Result** > 16 µg/mL

**Query** Likewise for CCNCCOc1ccc(CCNC(=O)Oc2cc(O)c3c(c2)[C@@H](C(=O)NC2C4CC5CC(C4)CC2C5)NC(=O)[C@H]2NC(=O)[C@H](NC(=O)[C@@H]4NC(=O)[C@H](CC(N)=O)NC(=O)[C@H](NC(=O)[C@@H](CC(C)C)NC)[C@H](O)c5ccc(c(Cl)c5)Oc5cc4cc(c5O[C@@H]4O[C@H](CO)[C@@H](O)[C@H](O)[C@H]4O[C@H]4C[C@](C)(N)[C@H](O)[C@H](C)O4)Oc4ccc(cc4Cl)[C@H]2O)c2ccc(O)c-3c2)cc1 (stereo partly drawn) [Compound 337] ?
**Result** 8 to 16 µg/mL

**Query** Try this compound too: CCCCOc1ccc(CCNC(=O)Oc2cc(O)c3c(c2)[C@@H](C(=O)NC2C4CC5CC(C4)CC2C5)NC(=O)[C@H]2NC(=O)[C@H](NC(=O)[C@@H]4NC(=O)[C@H](CC(N)=O)NC(=O)[C@H](NC(=O)[C@@H](CC(C)C)NC)[C@H](O)c5ccc(c(Cl)c5)Oc5cc4cc(c5O[C@@H]4O[C@H](CO)[C@@H](O)[C@H](O)[C@H]4O[C@H]4C[C@](C)(N)[C@H](O)[C@H](C)O4)Oc4ccc(cc4Cl)[C@H]2O)c2ccc(O)c-3c2)cc1 (stereo partly drawn) [Compound 339]
**Result** 4 to 8 µg/mL

**Query** Now the compound CNCCCCCNC(=O)Oc1cc(O)c2c(c1)[C@@H](C(=O)NC1C3CC4CC(C3)CC1C4)NC(=O)[C@H]1NC(=O)[C@H](NC(=O)[C@@H]3NC(=O)[C@H](CC(N)=O)NC(=O)[C@H](NC(=O)[C@@H](CC(C)C)NC)[C@H](O)c4ccc(c(Cl)c4)Oc4cc3cc(c4O[C@@H]3O[C@H](CO)[C@@H](O)[C@H](O)[C@H]3O[C@H]3C[C@](C)(N)[C@H](O)[C@H](C)O3)Oc3ccc(cc3Cl)[C@H]1O)c1ccc(O)c-2c1 (stereo partly drawn) [Compound 336]
**Result** > 16 µg/mL

**Query** // repeat for CCCCCOCCNC(=O)Oc1cc(O)c2c(c1)[C@@H](C(=O)NC1C3CC4CC(C3)CC1C4)NC(=O)[C@H]1NC(=O)[C@H](NC(=O)[C@@H]3NC(=O)[C@H](CC(N)=O)NC(=O)[C@H](NC(=O)[C@@H](CC(C)C)NC)[C@H](O)c4ccc(c(Cl)c4)Oc4cc3cc(c4O[C@@H]3O[C@H](CO)[C@@H](O)[C@H](O)[C@H]3O[C@H]3C[C@](C)(N)[C@H](O)[C@H](C)O3)Oc3ccc(cc3Cl)[C@H]1O)c1ccc(O)c-2c1 (stereo partly drawn) [Compound 340] and report
**Result** 8 to 16 µg/mL

**Query** Same for CCCCCOc1ccc(S(=O)(=O)NCCCCCCNC(=O)Oc2cc(O)c3c(c2)[C@@H](C(=O)NC2C4CC5CC(C4)CC2C5)NC(=O)[C@H]2NC(=O)[C@H](NC(=O)[C@@H]4NC(=O)[C@H](CC(N)=O)NC(=O)[C@H](NC(=O)[C@@H](CC(C)C)NC)[C@H](O)c5ccc(c(Cl)c5)Oc5cc4cc(c5O[C@@H]4O[C@H](CO)[C@@H](O)[C@H](O)[C@H]4O[C@H]4C[C@](C)(N)[C@H](O)[C@H](C)O4)Oc4ccc(cc4Cl)[C@H]2O)c2ccc(O)c-3c2)cc1 (stereo partly drawn) [Compound 317]
**Result** 8 to 16 µg/mL

**Query** Item: CCCCCOCCNC(=O)Oc1cc(O)c2c(c1)[C@@H](C(=O)O)NC(=O)[C@H]1NC(=O)[C@H](NC(=O)[C@@H]3NC(=O)[C@H](CC(N)=O)NC(=O)[C@H](NC(=O)[C@@H](CC(C)C)NC)[C@H](O)c4ccc(c(Cl)c4)Oc4cc3cc(c4O[C@@H]3O[C@H](CO)[C@@H](O)[C@H](O)[C@H]3O[C@H]3C[C@](C)(N)[C@H](O)[C@H](C)O3)Oc3ccc(cc3Cl)[C@H]1O)c1ccc(O)c-2c1 (atropisomer, axis not shown) [Compound 348]
**Result** > 16 µg/mL
